The values you see were collected from patent US10100083B2.

method_summary: in vivo
experimental_setup: Balb/c, mouse
property_name: MTD (mg/kg)
Write down the numeric answer in mg/kg and omit the unit.

Name the recorded MTD of the item COc1cccc2c1C(=O)c1c(O)c3c(c(O)c1C2=O)C[C@@](O)(C(C)=O)C[C@@H]3O[C@H]1C[C@H](N)[C@H](O)[C@H](C)O1 [free DNR, daunorubicin] in your answer.
10
